Target: Homeobox protein Hox-A13 (Mus musculus) (UniProt Q62424)
Sequence (Q62424 whole entry, looked up): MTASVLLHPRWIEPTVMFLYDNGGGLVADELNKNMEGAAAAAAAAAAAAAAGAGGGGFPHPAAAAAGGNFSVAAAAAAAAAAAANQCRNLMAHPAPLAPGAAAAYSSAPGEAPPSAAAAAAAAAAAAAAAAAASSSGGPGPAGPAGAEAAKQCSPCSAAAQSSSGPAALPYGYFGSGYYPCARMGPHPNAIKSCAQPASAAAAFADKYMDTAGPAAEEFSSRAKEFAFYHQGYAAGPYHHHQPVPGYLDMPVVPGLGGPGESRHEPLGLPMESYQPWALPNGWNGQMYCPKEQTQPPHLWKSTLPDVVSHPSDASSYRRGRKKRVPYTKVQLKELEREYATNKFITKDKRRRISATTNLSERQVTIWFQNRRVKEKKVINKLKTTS
Experiment: inhibitors of HoxA13-DNA binding, primary screen, biochemical, fluorescence polarization, labeled oligonucleotide (AID 1185)
Conditions: 15 min, higher = more signal, called active from +8 up or from −8 down
ASSAY ENDPOINT: z-score

compound=O=C(O)[C@@]1(CCS(=O)(=O)c2ccccc2)COC(c2ccc(OCCCO)cc2)=N1 assay_endpoint=z-score value_observed=-2.82
compound="CN1C(=O)C2C=CC(C(O)C3CCCCC3)N(Nc3ccc([N+](=O)[O-])cc3[N+](=O)[O-])C2C1=O (stereo not given)" assay_endpoint=z-score value_observed=-2.4
compound="CS(=O)(=O)CCOC(=O)C1=CC(CCCO)=CC(c2ccc(CN3CCCC3)cc2)N(Cc2cc3c(cc2Br)OCO3)C=C1C(=O)OCCS(C)(=O)=O (stereo not given)" assay_endpoint=z-score value_observed=-0.776
compound=CC(C)(C)OC(=O)CC[C@@]1(C(N)=O)N=C(c2ccc(OCCCO)cc2)O[C@@H]1c1ccccc1 assay_endpoint=z-score value_observed=-3.33
compound="O=C1NC(=O)C2C1C=CC(C(O)Cc1ccccc1)N2Nc1ccc(Cl)cc1Cl (stereo not given)" assay_endpoint=z-score value_observed=-5.64
compound=NCCCCCNC(=O)[C@@H]1C[C@@H]2C(=O)NCC(=O)N2[C@@H]1c1ccc(O)cc1 assay_endpoint=z-score value_observed=-1.06
compound="O=C1NC(=O)C2C1C=CC(C(O)c1ccccc1)N2Nc1ccc(Cl)cc1Cl (stereo not given)" assay_endpoint=z-score value_observed=-5.54
compound="CCOC(=O)[C@H]1CC=C2CC1C(=O)N1CCC[C@@H]1[C@@H]2O[Si](C)(C)C(C)(C)C (stereo not given in full)" assay_endpoint=z-score value_observed=-5.97
compound=COc1cc2c(cc1OC)CN(C(=O)[C@H]1[C@@H]3C(=O)O[C@@H](c4ccccc4)[C@@H](c4ccccc4)N3[C@@H](c3ccc(O)cc3)[C@]13C(=O)Nc1ccc(C#CC4=CCCCC4)cc13)CC2 assay_endpoint=z-score value_observed=1.4
compound=C[N+](C)(C)CCCCNC(=O)[C@H]1C[C@H]2C(=O)N[C@@H](Cc3ccccc3)C(=O)N2[C@H]1c1ccc(O)cc1 assay_endpoint=z-score value_observed=-1.49

Origin of measurements: PubChem BioAssay
